A collection of binders and their measured Jurkat Cell Binding (FOI)
molecular target: T1, human CD3 expressed on cells (human, UniProt P07766 23-207; P04234 22-171; P09693 23-182); experiment: flow cytometry, 25 nM
T1 construct: whole, on cells; CD3 complex on Jurkat cells and on human primary T cells
T1 sequence (P07766 23-207, chain 1 of 3): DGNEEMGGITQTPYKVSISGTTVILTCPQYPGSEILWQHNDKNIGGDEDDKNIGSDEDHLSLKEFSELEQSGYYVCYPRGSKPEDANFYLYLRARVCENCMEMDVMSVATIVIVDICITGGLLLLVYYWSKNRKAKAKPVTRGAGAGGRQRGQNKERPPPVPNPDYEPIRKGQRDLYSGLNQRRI
T1 sequence (P04234 22-171, chain 2 of 3): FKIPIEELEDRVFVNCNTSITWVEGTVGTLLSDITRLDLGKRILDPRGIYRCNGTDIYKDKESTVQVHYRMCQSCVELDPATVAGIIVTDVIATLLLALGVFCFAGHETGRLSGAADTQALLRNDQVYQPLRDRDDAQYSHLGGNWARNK
T1 sequence (P09693 23-182, chain 3 of 3): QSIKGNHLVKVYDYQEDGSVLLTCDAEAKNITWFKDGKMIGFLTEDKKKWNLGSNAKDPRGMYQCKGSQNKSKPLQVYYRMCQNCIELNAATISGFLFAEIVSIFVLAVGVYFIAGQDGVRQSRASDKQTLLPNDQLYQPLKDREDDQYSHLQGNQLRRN
Kindly answer with a numeric value in FOI, unit omitted.

The cases that follow already have their Jurkat Cell Binding (FOI) on record.
[
  {
    "binder": "mAb 114 (antibody, V domains shown) VH: EVQLVESGGGLVKTGGSLRLSCVASGFSFKKAWMNWVRQAPGKGLEWVGRIKRNTDGGPADYAAPVKGRFTLSRDDSKKTLYLQMNSLKTEDTAVYYCTTLDSSSWYVGYYYMDVWGKGTTVTVSS VL: DIQMTQSPSSVSASVGDRVIITCRASQDINNWLAWYLQRPGKAPKLLIYAASSLQSGVPSRFSGSGSGTDFTLTIGSLQPEDFATYYCQQAHSLPITFGQGTRLEIQ",
    "Jurkat Cell Binding (FOI)": 167
  },
  {
    "binder": "mAb 131 (antibody, V domains shown) VH: EVQLVESGGGLVKTGGSLRISCVASGFSFKKAWMNWVRQAPGKGLEWVGRIKRNTDGGTIDYAAPVKGRFSLSRDDSKNTLFLQMNSLKTEDTAVYFCTTLDSSSYYVGYYYMDVWGKGTTVTVSS VL: DIHMTQSPSSVSASVGDRVTITCRASQDINNWLAWYQQKPGKAPKLLIYTASSLQSGVPSRFSGSGSGTDFTLTISSLQPEDFATYFCQQAHSLPITFGQGTRLGIK",
    "Jurkat Cell Binding (FOI)": 155
  }
]

query: Query: Jurkat Cell Binding (FOI); subject: mAb 47 (antibody, V domains shown) VH: QAQLVQSGSELKKPGASVKVSCKASGYTFTKHSMNWVRQAPGQGLEWMGWINTNTGNPTYAQGFTGRFVFSLDTSVTTAYLQISSLKAEDTAVYYCAREGDYDFWSGFFNFDYWGQGTLVTVSS VL: DIQMTQSPSSLSASVGDRVTITCRASQGIRNDLGWYQQKPGKAPKRLIYAASSLQSGVPSRFSGSGSGTEFTLTISSLQPEDFATYYCLQHNSYPRTFGQGTKVEIK
result: 112
